Where do the numbers come from? From the NIST ThermoML archive (doi:10.1016/j.jct.2017.06.008).

condition details: 293.15 K; 100 kPa; Liquid; Frequency=3 MHz; Single path-length method
Catalogue of compounds with associated speed of sound
value type: speed of sound (m/s)

C1CCCCC1 :: 1279.5
CC#N :: 1299.7
CC(C)=O :: 1184.3
C[S+](C)[O-] [dimethyl sulfoxide] :: 1504.7
CC(=O)CC(C)C :: 1212.3

###

assay name: refractive index (Na D-line) (dimensionless)
condition details: 303.15 K; 100 kPa; Liquid; Standard Abbe refractometry
Numbers after ± are expanded uncertainties.
value type: refractive index

C[S+](C)[O-] [dimethyl sulfoxide] :: 1.475 ± 0.005
CC(C)=O [acetone] :: 1.353 ± 0.005
CC#N [acetonitrile] :: 1.339 ± 0.005
C1CCCCC1 [cyclohexane] :: 1.421 ± 0.005
CC(=O)CC(C)C [4-methylpentan-2-one] :: 1.391 ± 0.005
